procedureDetails: Bioavailability in dog at 1 mg/kg, po
Type: ADME, organism-based, Canis lupus familiaris
conditionLabel: in vivo
Reported bioavailability values follow for various compounds
Dear colleague, please send the value followed by its unit.

The compound O/N=C(\CCN1CCN(c2ccccn2)CC1)c1ccccc1 showed bioavailability equal to 0%

Reported bioavailability ( CO/N=C(\CCN1CCN(c2ccccn2)CC1)c1ccc(Cl)cc1 ) = 39.8%

In plain terms, CO/N=C(\CCN1CCN(c2ccccn2)CC1)c1ccc(F)c(Cl)c1 has a documented bioavailability of 42.9%

----------
# bioavailability annotations
procedureDetails: Bioavailability in rat at 1 mg/kg, po
Format: ADME, organism-based
conditionLabel: in vivo
The reply should be a number in %, with the unit left off.

O/N=C(\CCN1CCN(c2ccccn2)CC1)c1ccccc1
0
CO/N=C(\CCN1CCN(c2ccccn2)CC1)c1ccc(F)c(Cl)c1
18.6

// moving on: another record for bioavailability
CO/N=C(\CCN1CCN(c2ccccn2)CC1)c1ccc(Cl)cc1 yielded bioavailability of 16.3

----------
Reported values of pEC50 for individual entries
targetEntity: D(4) dopamine receptor (Homo sapiens)
procedureDetails: Activity at human recombinant D4.4 receptor expressed in HEK293 cells by FLIPR assay
Expect pEC50 as a plain number equal to -log10 of the molar concentration.

O/N=C(\CCN1CCN(c2ccccn2)CC1)c1ccc(F)cc1
7.51
CO/N=C(\CCN1CCN(c2ccccn2)CC1)c1cccc(Cl)c1
7.05
COC(CN1CCN(c2ccccn2)CC1)/C(=N/O)c1cccc(C)c1 (stereo unspecified)
5.27
O/N=C(\CCN1CCN(c2ccccn2)CC1)c1ccc(F)cc1F
8.05
CO/N=C(/CCN1CCN(c2ccccc2OC(C)C)CC1)c1ccc(F)cc1
6.22
CO/N=C(\CCN1CCN(c2ccccn2)CC1)c1ccc(C)c(C)c1
6.97
CO/N=C(\c1ccc(Cl)cc1)C(CN1CCN(c2ccccn2)CC1)OC (stereo unspecified)
6.71
Cc1ccccc1/C(CCN1CCN(c2ccccn2)CC1)=N/O
8.38

Okay, next one:
Sample CO/N=C(/c1ccc(Cl)cc1)C(CN1CCN(c2ccccn2)CC1)OC (stereo unspecified) ; pEC50 observed: 6.55

----------
procedureDetails: Half life in dog at 1 mg/kg, po
Assay type: ADME, organism-based, Canis lupus familiaris
Set-up: dose 1 mg/kg, route oral
conditionLabel: in vivo
Attribute: half-life
Be sure to follow the number with its unit.

CO/N=C(\CCN1CCN(c2ccccn2)CC1)c1ccc(Cl)cc1
6.2 h

Shift focus to the following entry.
Record CO/N=C(\CCN1CCN(c2ccccn2)CC1)c1ccc(F)c(Cl)c1 . Reported half-life: 6.1 h

----------
targetEntity: D(4) dopamine receptor (Homo sapiens, UniProt P21917)
procedureDetails: Activity at human recombinant D4.4 receptor expressed in HEK293 cells by FLIPR assay
testReadout: EC50 (nM)
Answer format: numeric, nM implied, no suffix.

Solved entries:
CCCO/N=C(\CCN1CCN(c2ccccn2)CC1)c1ccccc1
320
CCO/N=C(\CCN1CCN(c2ccccc2C#N)CC1)c1ccccc1
48.7

// CO/N=C(\CCN1CCN(c2ccccn2)CC1)c1ccc(F)c(Cl)c1 : EC50 value = 148

Noted for CO/N=C(/CCCN1CCN(c2ccccn2)CC1)c1ccc(F)cc1 : its EC50 reads 33.5

Memo: CO/N=C(\CCN1CCN(c2ccccn2)CC1)c1cccc(C#N)c1 , reported EC50: 63.7

Entry Cc1cccc(/C(CCN2CCN(c3ccccn3)CC2)=N/O)c1 , EC50 reported as 2.3

----------
targetEntity: D(4) dopamine receptor (Homo sapiens)
Sequence (P21917 whole entry): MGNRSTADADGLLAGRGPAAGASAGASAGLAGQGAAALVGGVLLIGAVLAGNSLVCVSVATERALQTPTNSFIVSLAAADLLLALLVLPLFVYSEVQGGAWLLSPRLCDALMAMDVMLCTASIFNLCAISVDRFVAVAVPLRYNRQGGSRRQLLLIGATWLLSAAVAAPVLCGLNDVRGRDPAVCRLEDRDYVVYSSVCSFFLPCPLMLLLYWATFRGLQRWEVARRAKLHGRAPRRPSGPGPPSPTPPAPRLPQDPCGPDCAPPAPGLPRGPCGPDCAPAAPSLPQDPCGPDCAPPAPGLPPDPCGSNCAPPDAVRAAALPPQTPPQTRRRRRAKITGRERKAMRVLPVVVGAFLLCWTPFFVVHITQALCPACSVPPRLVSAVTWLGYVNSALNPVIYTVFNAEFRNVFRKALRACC
procedureDetails: Displacement of [3H]A-369508 from human recombinant D4.4 receptor expressed in HEK293 cell membrane
Type: cell membranes
Quick list: Ki per entry.
State just the number; it will be interpreted in nM.

CO/N=C(\CCN1CCN(c2ccccn2)CC1)c1ccc(F)cc1
14.2
CO/N=C(\CN1CCN(c2ccccn2)CC1)c1ccc(F)cc1
2050
CO/N=C(/CCN1CCN(c2ccccn2)CC1)c1ccc(Cl)c(C)c1
11.6
CCO/N=C(\CCN1CCN(c2nccs2)CC1)c1ccccc1
168
CO/N=C(/CCN1CCN(c2ccccn2)CC1)c1cc(F)cc(F)c1
6.3
CO/N=C(/c1ccc(Cl)cc1)C(O)CN1CCN(c2ccccn2)CC1 (stereo not drawn)
150
CO/N=C(\CCN1CCN(c2ccccn2)CC1)c1ccc(F)c(Cl)c1
71.2
CO/N=C(\CCN1CCN(c2ccccn2)CC1)c1cccc(F)c1
13.9
CO/N=C(/CCN1CCN(c2ccccn2)CC1)c1cccc(F)c1
6.4
CO/N=C(/c1ccc(Cl)cc1)C(C)CN1CCN(c2ccccn2)CC1 (stereo not drawn)
346

Documented Ki of CCO/N=C(\CCN1CCN(c2ccccn2)CC1)c1ccccc1 : 38

Notebook: CO/N=C(/CCN1CCN(c2ccccn2)CC1)c1cccnc1 , Ki read as 130

Entry N#CCO/N=C(\CCN1CCN(c2ccccn2)CC1)c1ccccc1 , Ki reported as 88

----------
targetEntity: UniProt:P21917
procedureDetails: Activity at human recombinant D4.4 receptor expressed in HEK293 cells by FLIPR assay
EC50 for assorted molecules
Your answer is read as nM, so omit the unit and give the number.

CO/N=C(/CCN1CCN(c2ccccn2)CC1)c1ccccc1
24.1
O/N=C(\CCN1CCN(c2ccccn2)CC1)c1cc(F)cc(F)c1
19.4
CO/N=C(/c1ccc(Cl)cc1)C(C)CN1CCN(c2ccccn2)CC1 (stereo unspecified)
459

From here, focus on the item given below.
Value (EC50, UniProt:P21917) for record CCCCO/N=C(\CCN1CCN(c2ccccn2)CC1)c1ccccc1 = 382

----------
targetEntity: UniProt P14416
Sequence (P14416 whole entry): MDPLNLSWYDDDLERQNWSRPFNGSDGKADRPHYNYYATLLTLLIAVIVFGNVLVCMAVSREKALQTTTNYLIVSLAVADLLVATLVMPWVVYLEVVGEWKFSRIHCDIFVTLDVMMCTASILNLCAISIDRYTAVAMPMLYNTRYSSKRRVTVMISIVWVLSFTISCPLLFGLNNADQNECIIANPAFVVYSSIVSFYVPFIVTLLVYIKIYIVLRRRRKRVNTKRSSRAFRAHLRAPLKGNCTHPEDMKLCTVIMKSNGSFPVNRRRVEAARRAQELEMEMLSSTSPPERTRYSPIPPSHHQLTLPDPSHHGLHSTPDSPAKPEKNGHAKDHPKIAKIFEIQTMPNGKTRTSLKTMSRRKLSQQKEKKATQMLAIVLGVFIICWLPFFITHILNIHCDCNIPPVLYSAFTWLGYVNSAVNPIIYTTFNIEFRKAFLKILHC
procedureDetails: Antagonist activity at human recombinant D2 receptor expressed in HEK293 cells by FLIPR assay
testReadout: IC50

CO/N=C(\CCN1CCN(c2ccccn2)CC1)c1ccc(Cl)c(Cl)c1
> 10 µM
CO/N=C(\CCN1CCN(c2ccccn2)CC1)c1cc(C)cc(C)c1
> 10 µM
Cc1ccccc1/C(CCN1CCN(c2ccccn2)CC1)=N/O
> 10 µM
CCO/N=C(\CCN1CCN(c2ncccn2)CC1)c1ccccc1
> 10 µM

What the record says about CO/N=C(\CN1CCN(c2ccccn2)CC1)c1ccc(F)cc1 : IC50 is > 10 µM

IC50 recorded for this molecule, O/N=C(\CCN1CCN(c2ccccn2)CC1)c1ccccc1Cl , is > 10 µM

Short answer for CCCO/N=C(\CCN1CCN(c2ccccn2)CC1)c1ccccc1 : IC50 was > 10 µM

----------
This section presents molecules with their documented EC50 values.
targetEntity: D(4) dopamine receptor (Homo sapiens, UniProt P21917)
Sequence (P21917 whole entry): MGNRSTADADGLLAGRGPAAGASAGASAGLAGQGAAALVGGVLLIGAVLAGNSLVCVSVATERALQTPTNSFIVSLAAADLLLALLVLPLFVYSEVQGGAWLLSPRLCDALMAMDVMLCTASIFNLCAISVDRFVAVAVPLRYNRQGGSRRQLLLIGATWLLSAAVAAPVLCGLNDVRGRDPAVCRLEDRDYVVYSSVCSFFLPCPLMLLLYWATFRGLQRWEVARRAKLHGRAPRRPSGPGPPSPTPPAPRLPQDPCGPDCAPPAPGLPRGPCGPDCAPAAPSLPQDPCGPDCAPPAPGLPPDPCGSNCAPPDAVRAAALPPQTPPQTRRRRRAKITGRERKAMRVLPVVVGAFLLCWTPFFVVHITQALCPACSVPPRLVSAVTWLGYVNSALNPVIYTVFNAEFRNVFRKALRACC
procedureDetails: Activity at human recombinant D4.4 receptor expressed in HEK293 cells by FLIPR assay
# unit: nM | format: bare number

Solved cases below.
O/N=C(/CCN1CCN(c2ccccn2)CC1)c1ccccc1Cl
25
O/N=C(\CCN1CCN(c2ccccn2)CC1)c1ccccc1Cl
24
CO/N=C(\CCN1CCN(c2ccccn2)CC1)c1ccc(Cl)c(C)c1
135
CO/N=C(/CCN1CCN(c2ccccn2)CC1)c1cccc(C#N)c1
27.5
CO/N=C(\CCN1CCC(c2cccc[n+]2[O-])CC1)c1ccc(Cl)cc1
84

Consider CC(C)O/N=C(\CCN1CCN(c2ccccn2)CC1)c1ccccc1 . Its measured EC50 is 164

CO/N=C(\CCN1CCN(c2ccccc2OC(C)C)CC1)c1ccc(F)cc1 has a reported EC50 of 594

EC50 measured on CO/N=C(/CCN1CCN(c2ccccn2)CC1)c1ccc(Cl)c(C)c1 = 98

Memo: Cc1cc(C)cc(/C(CCN2CCN(c3ccccn3)CC2)=N/O)c1 , reported EC50: 45.8

Recorded result, CCO/N=C(\CCN1CCN(c2ncccn2)CC1)c1ccccc1 , EC50: 615

Record CCO/N=C(\CCN1CCN(c2ncccc2C#N)CC1)c1ccccc1 . Reported EC50: 139

Entry under test: O/N=C(/CCN1CCN(c2ccccn2)CC1)c1ccccc1 . Its EC50 was 21.7

Form: molecule = O/N=C(/CCN1CCN(c2ncccn2)CC1)c1ccccc1 ; EC50 = 69

Measured EC50, O/N=C(\CCN1CCN(c2ncccn2)CC1)c1ccccc1 : 39.2

Looking up CO/N=C(\CCN1CCN(c2ccccn2)CC1)c1cccc(C)c1 , I found its EC50 recorded as 27.6

Please fill in: EC50 reported for O/N=C(\CN1CCN(c2ccccn2)CC1)c1ccc(F)cc1 = 26

Looking up O/N=C(\CCN1CCN(c2ccccn2)CC1)c1cccc(Cl)c1 , I found its EC50 recorded as 11.9

The measured EC50 associated with COC(CN1CCN(c2ccccn2)CC1)/C(=N\O)c1cccc(C)c1 (stereo not drawn) reads 34.5

The recorded EC50 for CO/N=C(\CCN1CCN(c2ccccn2)CC1)c1ccccc1 is 32
